Tested on: HS 578T breast
PROTOCOL_NOTES: NCI tumour cell line growth inhibition, 48 h; in the data active means GI50 below about 0.43 µM; inactive means the rest
Outcome codes: active, inactive

CCC1=C(c2ccc(OC)cc2)C(C)(C)Oc2c1ccc(O)c2CN1CCCC1; inactive
Fc1cccc(COc2ccc(Nc3ncnc4onc(-c5ccccc5)c34)cc2)c1; active
CC1=C(C#N)C23C(=O)N(c4ccccc4)C(=O)C2=C(O)C=CC3(O)N1Cc1ccc(Cl)cc1Cl (stereo not given); inactive
CSc1ccc(C2=NN(C(C)=O)C(c3ccc(-c4cc(Cl)c(Cl)cc4Cl)o3)C2)cc1 (stereo not given); inactive
C=C(C)[C@@H]1CC[C@]2(CO)CC[C@]3(C)[C@H](CC[C@@H]4[C@@]5(C)CCCNC(C)(C)[C@@H]5CC[C@]43C)[C@@H]12; inactive

Data credit: PubChem BioAssay (NCI)
